Test system: MS2 coat protein
assay: apparent KD of MS2 coat protein; higher = weaker reporter binding
assay setup: Eterna round: R107; input ligand: theophylline 20 uM
Binary call on apparent KD of MS2 coat protein: 1.0 from 70 nM upward, 0.0 beneath that.

| polymer sequence | cat |
| --- | --- |
| AUUUACAUGGUCAUAUAUAUAUCGUCAGAUACCAGACGAGAUAUUGUCCCUUGGCAGCUGUUACAUGAGGAUCACCCAUGUAAUU [JR_Nu_ExcTheophyA_Sub021] | 0.0 |
| UCACAUGAGGAUCACCCAUGUGUCAGAGAAGGAGCGGCCGCAAGGCCAGGUAGGUCGCUCGGGUAUGGUGAGGUUCACCCGUGUG [#1 Exclusion - Arginine A Attempt #13 (Inspired by cyborg)] | 1.0 |
| CGUCGAGACUGAAGGAGCGAGAUAACAACAUUGGGUCUCAACACAUGAGGAUCACCCAUGUCUCAGGUAGGUCGCGGUGUCACCG [Exclusion Arginine B GF21] | 1.0 |
| AUAACAUGAGGAUCACCCAUGUAAGCUGAAGGAGCGGACGAAAGUCCAGGUAGGUCGCAGCGCUCCUUCACCUCAUGAGAAGGAG [(M1)-(M2)-(Arg1)-(Arg2)-(A)'-(M)'-(A)''_Design2] | 0.0 |

As a next step, examine the sequence that follows.
Qu. Dear colleague, could you confirm whether GCUGUUGCGGUGAGGUAUCCGGCUGUGGAAGGAGCGCGGAAGGCCGCAGGUAGGUCGCCACAUGAGGAUCACCCAUGUCGAUAUA [Aninati] has apparent KD of MS2 coat protein at or above 70 nM?
Ans. 1.0

---

Test system: MS2 coat protein
assay: apparent KD of MS2 coat protein; higher = weaker reporter binding
assay setup: Eterna round: R107; input ligand: none
property measured: apparent KD of MS2 coat protein (nM)
Give the number; nM is assumed, so skip it.

The examples below pair each entry with its known result.
polymer sequence	units	apparent KD of MS2 coat protein
UAAUCUGGUCUUCGAUAGGUGAUCCUCAAACGAGGACCGGUACGGCCGCCACUCGAUAACAUGAGGAUCACCCAUGUACGAGUGA [|T'-M'-Trp-Ms2|_Design16b]	nM	134
GACCUUAUCUGAAGGAGCGAGGUAAAUAGGGAUAGGAACAUGAGGAUCACCCAUGUGCGGCCUCAGGUAGGUCGCAGAUGAGAUU [Exclusion Arginine B GF28]	nM	93.7
UGAUGGUACGGAAGGAGCGUGUAAGAACAAGAACAUGAGGAUCACCCAUGUAUUAAUUUAACACAGGUAGGUCGCCGAGUUAUUG [11.G]	nM	17.3
AGUCUUAAAGGAAGGAGCGCAGUCAUAACAUGAGGAUCACCCAUGUCGAUGUGAGGGUCAUUGCAGGUAGGUCGCCUUACUAAGA [Same State - Arginine B (Freestyle 5)]	nM	40.4
UUCAGCUAGUCGGCCGCCACUACAUGAGGAUCACCCAUGUAUCCUAAACACUGCUUCGGCAGUGGUAGGACCGGGACUAGCUGAG	nM	13.9

Qu. Record request: apparent KD of MS2 coat protein value, item UGGGUCGGAUGAGUAAAUUGUCCGACGUAUCGAGGACCGGUACGGCCGCCACUCGGUUGUACAUGAGGAUCACCCAUGUCAGGGU [#1 Same State - Tryptophan A Attempt #16 (HarryS)]
Ans. 436

Qu. Record request: apparent KD of MS2 coat protein value, item ACACAUGACAGAAGGAGCGGAAUGAACACACAUGAGGAUCACCCAUGUUUUUUUUGUGUUUUCCAGGUAGGUCGCUGACAUGAGG [#20 Same State - Arginine B]
Ans. 8.99

Qu. Record request: apparent KD of MS2 coat protein value, item UGGGUAGCAUAGAUUGAUAGUUAAACUGAAGGAGCGAGAAUAAUCUCAGGUAGGUCGCAGACAUGAGGAUCACCCAUGUAGAUGG [Same State Arginine A GF16]
Ans. 122

Qu. Record request: apparent KD of MS2 coat protein value, item AUACAUGAGGAUCACCCAUGUGAUGGCCGGCGAGGACCGGUACGGCCGCCACUCGUGAUCCGUCCCGAGAGCAAAGCUCUCGACA [Raatala]
Ans. 53.7

Qu. Record request: apparent KD of MS2 coat protein value, item UGGUAUGUAGGAAGGAGCGCAUACUUCACAUGAGGAUCACCCAUGUCAAGACGUGAGUCAGUGCAGGUAGGUCGCCUAGUUAUGA [Same State - Arginine B (Freestyle 21)]
Ans. 42.9

Qu. Record request: apparent KD of MS2 coat protein value, item UGGGUACAUGAGGAUCACCCAUGUACUGAAGGAGCGGGACGAAUCUCAGGUAGGUCGCAGACAUGAGGAUCACCCAUGUAGUGGA [Exclusion Arginine A GF 15]
Ans. 15.9

Qu. Record request: apparent KD of MS2 coat protein value, item GAAAAUCCCGUACAUGAGGAUCACCCAUGUCGAGGACCGGUACGGCCGCCACUCGCACGCAUUGCAUUGGAGGGUCAGGUACGAG [Erenerrati]
Ans. 28.5

---

Tested on: MS2 coat protein
assay: apparent KD of MS2 coat protein; designed switch direction (-1 OFF switch, 1 ON switch): -1; higher = weaker reporter binding
assay setup: input ligand: microRNA oligo, concentration not stated
apparent KD of MS2 coat protein values by entry
Give the number; nM is assumed, so skip it.

The examples below pair each entry with its known result.
| polymer sequence | apparent KD of MS2 coat protein (nM) |
| --- | --- |
| AGAGUGCUGCGAGGAUAUACAUGAGGAUCACCCAUGUAAAUGUGUGAGGCUUUGCCUCACACAAUGUAGAAGGCGCAGUACUCA [Mat - Exclusion NG 2 - Mod of JL - D2] (Eterna round: R96, puzzle: Exclusion NG 2) | 10.7 |
| UAUAUAUAGUAAGGAUAUGUAUUUAGUUUAUAAACAGAAGGUACUGACAUGAGGAUCACCCAUGUUUUAGUGUGGGCAUGUAGA [JMF's solution 14] (Eterna round: R96, puzzle: Exclusion NG 1) | 71.2 |
| UUGAUUCAUGUAGGAUAUGCGUGGCGAAGCUAUGCAGAAGGACAUGAGGAUCACCCAUGUGCUUGCGUCCGCGUACGGAUGCUA [JL ENG1 1.23] (Eterna round: R96, puzzle: Exclusion NG 1) | 107 |

Qu. Notebook: pull reported apparent KD of MS2 coat protein for MS2 coat protein, entry UUUAUUUUGCAAGGAUAUGUUUAAUUUUAGUUUCCUUACACAUGAGGAUCACCCAUGUUAUACUUACAGAAGGUGCGUAAUUUU [Excl-NG2-LRO01] (Eterna round: R96, puzzle: Exclusion NG 2)
Ans. 101

---

System: MS2 coat protein
assay: apparent KD of MS2 coat protein; designed switch direction (-1 OFF switch, 1 ON switch): 1; higher = weaker reporter binding
assay setup: input ligand: none
property measured: apparent KD of MS2 coat protein (µM)
Give the number; µM is assumed, so skip it.

Qu. Record request: apparent KD of MS2 coat protein value, item AUUAUUUAUGCAGGAUAUGAUUAACAUGAGGAUCACCCAUGUGGUGUUGUGAGUAAGGAGAGUGAUCAGAAGGGCAUUUUGUUU [JMF's solution 51] (Eterna round: R96, puzzle: Same State NG 2)
Ans. 0.451

Qu. Record request: apparent KD of MS2 coat protein value, item AUUUUUAAUGCAGGAUAUGAUUAACAUGAGGAUCACCCAUGUGGUGUUGUGAGUAAGGAGAGUGAUCAGAAGGGCAUUUUUUCA [SS-NG2-LRO01] (Eterna round: R96, puzzle: Same State NG 2)
Ans. 0.533

Qu. Record request: apparent KD of MS2 coat protein value, item UGGUACAUGGGAGGAUAUCAUGUAGAGACAUGAGGAUCACCCAUGUAGAUGGCCGGUAACCGGGAUGAGAAGGCCCAUGUACCU [JL SSNG1 3.65] (Eterna round: R96, puzzle: Same State NG 2)
Ans. 0.151

Qu. Record request: apparent KD of MS2 coat protein value, item GGAGACAGAGCAGGAUAUGCUCCGAGUAACGAAGCAGAAGGGUUCGUAAAUCGUCGACAUGAGGAUCACCCAUGUGACCUAGUA [Eternabot solution 18] (Eterna round: R96, puzzle: Same State NG 1)
Ans. 0.0247

Qu. Record request: apparent KD of MS2 coat protein value, item CAAGCUUGGGUCUUCCCGCUCGUCUACAAACAUGAGGAUCACCCAUGUAUACUCUUCGCAUCAAUUCUAUCUCUUGG [Onraenbi] (Eterna round: R96, puzzle: Sensor for hsa-mir-208a)
Ans. 0.163

---

System: MS2 coat protein
assay: apparent KD of MS2 coat protein; designed switch direction (-1 OFF switch, 1 ON switch): 1; higher = weaker reporter binding
assay setup: input ligand: microRNA oligo, concentration not stated
property measured: apparent KD of MS2 coat protein
Put your answer as a value accompanied by its unit after it.

| polymer sequence | apparent KD of MS2 coat protein |
| --- | --- |
| GUGGUGAAUUAAGGAUAUCGAGUCUAGAUGUUAAACAUGAGGAUCACCCAUGUGGGUUGCGGUGUCGAGAAGGUGGUUUACGGG [salish99_SSNG2_r04_510] (Eterna round: R96, puzzle: Same State NG 2) | 0.084 µM |

Moving on to the next sequence.
Qu. Record request: apparent KD of MS2 coat protein value, item AAAGGAUGAUUAUACAUGAGGAUCACCCAUGUAAGUAAUACUAAGGAUAUGUGACUUAAUUGUUUACAGAAGGUAGGUUCAUGA [AK SSNG3-V2-1.1] (Eterna round: R96, puzzle: Same State NG 3)
Ans. 0.23 µM
